A set of compounds tested on MDA-MB-435, with measured GI50:
readout.name: GI50

compound	readout.name	observed.value
CCn1c2ccccc2c2cc(C(=O)c3ccc(C)c4ccccc34)ccc21	GI50	161 nM
COc1ccc2nc3cc(Cl)ccc3c(Nc3cc(CN4CCCC4)c(O)c(CN4CCCC4)c3)c2n1	GI50	1600 nM
CC(C)(C)OC(=O)N[C@@H](Cc1ccccc1)C(=O)N(Cc1ccccc1)C1(C(=O)NCc2ccccc2)CCN(Cc2ccccc2)CC1	GI50	3040 nM
COc1ccc2[nH]c(C(=O)OCc3ccc4c(Cl)cc(Cl)c(O)c4n3)cc2c1	GI50	1130 nM
CC[C@H](C)[C@H](NC(=O)c1cccn1C)C(=O)N(C)[C@H](C[C@@H](OC(C)=O)c1nc(C(=O)N[C@@H](Cc2ccccc2)C[C@H](C)C(=O)OC)cs1)C(C)C	GI50	34.8 nM
CCCCn1c(=O)c(/C=C/C(=O)/C=C/c2cc3ccccc3n(CCCC)c2=O)cc2ccccc21	GI50	206 nM
C[N+](C)=c1ccc2nc3c(cc(NCCCNc4cc5oc6cc(=[N+](C)C)ccc-6nc5c5ccccc45)c4ccccc43)oc-2c1	GI50	1760 nM
COC(=O)N[C@H]1CCc2c(Cl)c(OC)c(OC)c(OC)c2-c2ccc(SC)c(=O)cc21	GI50	< 10 nM
O=C(/C=C/C12c3ccccc3C(c3ccccc31)C1C(=O)NC(=O)C12)c1ccccc1 (stereo not drawn)	GI50	2160 nM
C=C1CCC2C3(C)COC(c4ccccc4Cl)OC3CCC2(C)C1/C=C/C1=CCOC1=O (stereo not drawn)	GI50	9890 nM
CC1SC(c2ccc(Cl)cc2Cl)N(NC(=O)C(O)c2ccccc2)C1=O (stereo not drawn)	GI50	74700 nM
CN1CCN(CCCOc2cc(O)c3c(=O)cc(-c4ccccc4)oc3c2)CC1	GI50	13700 nM
COc1c(N2CCN(CN3C(=O)C(=Nc4ccc(S(=O)(=O)Nc5ncccn5)cc4)c4cc(Cl)ccc43)C(C)C2)c(F)cc2c(=O)c(C(=O)O)cn(C3CC3)c12 (stereo not drawn)	GI50	10300 nM
O=c1[nH]c(=O)n(C2CC(O)C(CO)O2)cc1C(F)(F)F (stereo not drawn)	GI50	5310 nM
COc1cc(/C=C2\CCCC3=C2N=C2SC(C)=NN2C3c2cc(OC)c(OC)c(OC)c2)cc(OC)c1OC (stereo not drawn)	GI50	341 nM
N#CC1=C(N)NC(=O)NC12Nc1ccccc1N2	GI50	> 100000 nM
CCN(Cc1c(F)cccc1Cl)c1ccc(CO)c(Cl)c1	GI50	10900 nM
O=C1NC(c2ccccc2)C2(C(=O)O)CN(C3CC3)c3cc(N4CCNCC4)c(F)cc3C2N1 (stereo not drawn)	GI50	> 100000 nM
